Here, each record is paired with measured IA(β3) data.
Molecular target: human β3-adrenergic receptor (Homo sapiens, UniProt P13945)
Construct: Full length β3 AR clones (402 amino acids) containing the last 6 amino acids of hβ3—AR are prepared; expressed in transfected cells; host or cells: CHO cells
Sequence (P13945 whole entry): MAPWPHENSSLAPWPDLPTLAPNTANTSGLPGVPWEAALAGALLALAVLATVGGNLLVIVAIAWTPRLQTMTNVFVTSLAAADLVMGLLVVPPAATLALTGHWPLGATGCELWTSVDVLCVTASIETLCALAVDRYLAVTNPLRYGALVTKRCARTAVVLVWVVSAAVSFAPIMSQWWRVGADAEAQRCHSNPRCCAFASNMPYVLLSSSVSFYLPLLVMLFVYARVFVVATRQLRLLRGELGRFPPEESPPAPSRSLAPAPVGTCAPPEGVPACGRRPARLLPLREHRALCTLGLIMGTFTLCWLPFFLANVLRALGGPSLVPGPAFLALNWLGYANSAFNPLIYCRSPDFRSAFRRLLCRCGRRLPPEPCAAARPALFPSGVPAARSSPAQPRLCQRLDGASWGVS
Assay: cAMP response (SPA kit) in CHO cells transfected with human β3 adrenergic receptor
Assay type: cell-based
Settings: maximal response of compound compared to maximal response of isoproterenol at 10^-5 M; CHO cells, human β3-AR

Record excerpt, results attached:
CCOC(=O)C1CCN(C(=O)N2CCC(Nc3ccc(CCNC[C@H](O)COc4ccc(O)cc4)cc3)CC2)CC1 [Example 61] :: 1.34
O=C(OCc1ccc(F)cc1)N1CCC(Nc2ccc(CCNC[C@H](O)COc3ccc(O)cc3)cc2)CC1 [Example 121] :: 0.69
O=C(c1c[nH]c2ccccc12)N1CCC(Nc2ccc(CCNC[C@H](O)COc3ccc(O)cc3)cc2)CC1 [Example 99] :: 1.08
CCCCCCCCNC(=O)N1CCC(Nc2ccc(CCNC[C@H](O)COc3ccc(O)c(F)c3)cc2)CC1 [Example 65] :: 0.57
CCOC(=O)c1ccc(N2CCC(Nc3ccc(CCNC[C@H](O)c4ccc(O)c(NS(C)(=O)=O)c4)cc3)CC2)cc1 [Example 120] :: 1.1
COc1cccc(CNC(=O)N2CCC(Nc3ccc(CCNC[C@H](O)COc4ccc(O)cc4)cc3)CC2)c1OC [Example 25] :: 0.87
CC(C)NC(=O)N1CCC(Nc2ccc(CCNC[C@H](O)COc3ccc(O)cc3)cc2)CC1 [Example 11] :: 1.05
CC(=O)Nc1nc(C)c(S(=O)(=O)N2CCC(Nc3ccc(CCNC[C@H](O)c4ccc(O)c(NS(C)(=O)=O)c4)cc3)CC2)s1 [Example 115] :: 0.97
O=C(NCc1ccc(O)cc1F)N1CCC(Nc2ccc(CCNC[C@H](O)COc3cccc(O)c3)cc2)CC1 [Example 87] :: 0.84
CCCCCCNC(=O)Nc1ccc(S(=O)(=O)N2CCC(Nc3ccc(CCNC[C@H](O)COc4ccc(O)cc4)cc3)CC2)cc1 [Example 108] :: 1.08

For the molecule O=C(NCc1ccc(F)cc1)N1CCC(Nc2ccc(OCCNC[C@H](O)COc3ccc(O)cc3)cc2)CC1 [Example 39] , what IA(β3) is on record?
0.9

Consider the molecule O=C(O)COc1ccc(NC(=O)N2CCC(Nc3ccc(CCNC[C@H](O)COc4ccc(O)cc4)cc3)CC2)cc1 [Example 58] and give its measured IA(β3).
1.61

What IA(β3) value was documented for this molecule, CCCCCCCCNC(=O)N1CCC(Nc2ccc(OCCNC[C@H](O)COc3ccc(O)cc3)cc2)CC1 [Example 73] ?
0.8

Name the reported IA(β3) value associated with the molecule O=C(NCc1ccccc1C(F)(F)F)N1CCC(Nc2ccc(CCNC[C@H](O)COc3ccc(O)cc3)cc2)CC1 [Example 33]
0.78

Record request: IA(β3) value, item O=C(NCc1ccc(O)cc1F)N1CCC(Nc2ccc(CCNCC(O)COc3ccc(O)cc3)cc2)CC1 (stereo not drawn) [Example 83]
0.88

Report IA(β3) for CCNC(=O)N1CCC(Nc2ccc(CCNC[C@H](O)COc3ccc(O)cc3)cc2)CC1 [Example 10] please.
0.85

For the molecule shown here, CS(=O)(=O)Nc1cc([C@@H](O)CNCCc2ccc(NC3CCN(c4ccc(S(=O)(=O)N5CCCCC5)cc4)CC3)cc2)ccc1O [Example 119] , give the reported IA(β3).
1.03

// IA(β3) lookup, key: O=C(NCCc1cccc(F)c1)N1CCC(Nc2ccc(CCNC[C@H](O)COc3ccc(O)cc3)cc2)CC1 [Example 88]
0.81

What measured IA(β3) goes with Cc1sccc1C(=O)N1CCC(S(=O)(=O)c2ccc(CCNC[C@H](O)COc3ccc(O)cc3)cc2)CC1 [Example 107] ?
0.92

I'd like to know its IA(β3). The molecule in question is O=C(NCCCCCCCCF)N1CCC(Nc2ccc(CCNC[C@H](O)COc3ccc(O)cc3)cc2)CC1 [Example 55]
1.07

Given the molecule CS(=O)(=O)Nc1cc(OC[C@@H](O)CNCCc2ccc(NC3CCN(C(=O)NCc4cc(F)ccc4F)CC3)cc2)ccc1O [Example 50] , what is its reported IA(β3)?
1

Need IA(β3) of CCCCCCNC(=O)Nc1ccc(CNC(=O)N2CCC(Nc3ccc(CCNC[C@H](O)COc4ccc(O)cc4)cc3)CC2)cc1 [Example 67] , thanks.
0.92

Quick one: IA(β3) of COc1ccc(C2CCN(C(=O)N3CCC(Nc4ccc(CCNC[C@H](O)COc5ccc(O)cc5)cc4)CC3)CC2)cc1OC1CCCC1 [Example 17] ?
0.63

Requested field: IA(β3). Item: O=C(CCNC(=O)N1CCC(Nc2ccc(CCNC[C@H](O)COc3ccc(O)cc3)cc2)CC1)N1CCOCC1 [Example 90]
0.73
